molecular target: Zif268 wildtype (three zinc fingers, phage displayed) (Mus musculus, UniProt P08046 P08046:333-421); test: apparent Kd interpolated from microarray signal 0.085
recorded_endpoint: Kd (nM)
Give the value, in units of nM, as a plain number.

(Q) Can you look up the measured Kd of Zif268 site TCG (dsDNA, [none]) DNA 1: TATATAGCGTCGGCGTATATATCAAGTCAATCGGTCC DNA 2: GGACCGATTGACTTGATATATACGCCGACGCTATATA for me?
(A) 180
